test system: MYB mRNA; experiment: Splicing RT-qPCR assay, MYB canonical (CJ) and alternative (AJ) junction mRNA; type: cell-based, human; details: Homo sapiens, 24 h, A673 or K562 cells, 24 hours compound treatment, RT-qPCR; read-out: MYB CJ (IC50, decrease in canonical junction mRNA)
pIC50: −log10 of the molar value. Structures can show the parent of a compound that is named as a salt.
Measured Property: pIC50

Compound: Cc1cn2cc(NC(=O)c3ccc(N4CCN(C)C(C)C4)c4cc(C)oc34)cc(F)c2n1 (stereo not shown)
pIC50: 6.00 to 7.00
--
Compound: Cc1c(O)c(NC(=O)c2ccc(N3CCNCC3)c3cn(C)nc23)cc2cn(C)nc12 [Compound 325, hydrochloride]
pIC50: 5.00 to 6.00
--
Compound: Cc1cn2cc(NC(=O)c3ccc(N4CCN[C@@H](C)C4)c4cn(C)nc34)cc(F)c2n1 (single isomer, unassigned)
pIC50: > 7.00
--
Compound: Cc1cn2cc(NC(=O)c3ccc(N4CCN[C@H](C)C4)c4cn(C)nc34)cc(F)c2n1 (single isomer, unassigned)
pIC50: > 7.00
--
Compound: CCC(=O)CN[C@@H]1CCN(c2ccc(C(=O)Nc3cc(F)c4nc(C)cn4c3)c3nn(C)cc23)C1
pIC50: > 7.00

Please state, for each entry, its recorded pIC50.
1. Cc1cn2cc(NC(=O)c3ccc(N4CCNCC4)c4cn(C)nc34)nc(C#N)c2n1
2. CNC1CCN(c2ccc(C(=O)Nc3cn4cc(C)nc4c(N(C)C)n3)c3nn(C)cc23)C1 (stereo not shown)

Result string:
1. 6.00 to 7.00
2. < 5.00
